B1: TPR t1 (parent)
chain: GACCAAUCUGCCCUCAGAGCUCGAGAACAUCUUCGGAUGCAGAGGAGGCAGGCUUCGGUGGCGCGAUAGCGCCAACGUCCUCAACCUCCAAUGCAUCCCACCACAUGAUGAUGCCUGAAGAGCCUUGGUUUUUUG

Variants of: B1
protocol-description: polymerase ribozyme fitness, log enrichment relative to wild type (log ratio); higher = more active; in vitro selection for triplet polymerase activity
measured-property: polymerase ribozyme fitness (log ratio)
Just the number, please, no unit after it.

Tell us which polymerase ribozyme fitness (log ratio) value is on record for C15A U78C
-2.38

State, in one line, measured polymerase ribozyme fitness (log ratio) of A50C C72A C124U U130A
0.593

For C72A C82G A91C G93C , write its polymerase ribozyme fitness (log ratio).
-3.15

Using known records, supply polymerase ribozyme fitness (log ratio) for A2U A16G A26U G60U A119G
-4.84

Supply recorded polymerase ribozyme fitness (log ratio) for A6U C102A G128A here.
-4.03

Consider the variant A6U and give its recorded polymerase ribozyme fitness (log ratio).
0.173

State its polymerase ribozyme fitness (log ratio): G61A G107U
-4.9

Consider the variant G113A G128A and give its recorded polymerase ribozyme fitness (log ratio).
-2.92

Quick one: give measured polymerase ribozyme fitness (log ratio) for G10C C70U A108U U112A U132C
-6.08

Indicate its recorded polymerase ribozyme fitness (log ratio); the variant in question is G51A U131A
-2.2

In one line, give reported polymerase ribozyme fitness (log ratio) of the entry A26C C82A .
-5.2
